Reported inhibition in vivo at 3.3 mg/kg by item:
# Tested on: Rattus norvegicus
# experimental.protocol: Compound was tested for percent inhibition, at 3.3 mg/kg administered intraperitoneally against histamine by Dunnett's test
# Assay type: functional
# experimental.context: ip, route intraperitoneal
# output: bare number, implied unit %

Illustrative cases are given below, each with its answer.
compound	tested.system	inhibition in vivo at 3.3 mg/kg (%)
c1ccc2c(c1)Cn1c(cc3ccccc31)C(N1CCNCC1)=N2	Rattus norvegicus	55.7
CN1CCC(=C2c3ccccc3CC(=O)c3sccc32)CC1 [KETOTIFEN]	Rattus norvegicus	62.5
O=c1[nH]c2ccccc2n1CCCN1CCN(C(c2ccccc2)c2ccccc2)CC1 [OXATOMIDE]	Rattus norvegicus	49.3

Challenge: Any idea what inhibition in vivo at 3.3 mg/kg was measured for `CN1CCN(C2=Nc3ccccc3Cn3c2cc2ccccc23)CC1` ?
Response given: 63.3

----------
Quick reference for inhibition in vivo at 3.3 mg/kg among some compounds
# Tested on: Rattus norvegicus
# experimental.protocol: Compound was tested for percent inhibition, at 3.3 mg/kg administered intraperitoneally against rat passive cutaneous anaphylaxis by Dunnett's test
# Assay type: functional
# experimental.context: ip, route intraperitoneal
Give the value in % but do not write % after it.

Worked set:
compound	result.number
c1ccc2c(c1)Cn1c(cc3ccccc31)C(N1CCNCC1)=N2	92.7
CN1CCC(=C2c3ccccc3CC(=O)c3sccc32)CC1	92.4
CN1CCN(C2=Nc3ccccc3Cn3c2cc2ccccc23)CC1	100

# next compound below
Challenge: Can you look up the measured inhibition in vivo at 3.3 mg/kg of O=c1[nH]c2ccccc2n1CCCN1CCN(C(c2ccccc2)c2ccccc2)CC1 [OXATOMIDE] for me?
Response given: 100

This collection of values is drawn from ChEMBL document CHEMBL1123462.
